Molecular target: human TRPM8 (Homo sapiens (Human))
Test: TRPM8 inhibition assay (menthol-induced calcium influx, FDSS)
Details: HEK293 cells stably expressing human TRPM8; 100 μM menthol; Fura-2AM Ca2+ signal; read-out: TRPM8 Blocking Test (IC50)
pIC50: −log10 of the molar value.
measured property: pIC50

Please review the following examples before continuing.
{"compound": "Cc1c(N(Cc2ccc3c(c2)CCCC3)S(=O)(=O)c2ccc(C(=O)O)cc2)ncc2ccccc12 [Example 56]", "measured property": "pIC50", "quantitative result": 8.33}
{"compound": "Cc1c(N(Cc2cc3c(F)cc(F)cc3s2)S(=O)(=O)c2ccc(C(=O)O)cc2)ncc2ccccc12 [Example 194]", "measured property": "pIC50", "quantitative result": 8.89}

a = Cc1c(N(Cc2ccc(OC(F)(F)F)cc2)S(=O)(=O)c2ccc(C(=O)O)cc2)ncc2cccc(Cl)c12 [Example 230]
b = Cc1c(N(Cc2ccc(C(F)(F)C3CC3)c(Cl)c2)S(=O)(=O)c2ccc(C(=O)O)cc2)nc(C2CC2)c2ccccc12 [Example 181]
Query: // max by pIC50 over [ a , b ] Selection: enter the item's label.
Result: b
(b: 9.00, a: 7.36)

* * *

Target: human TRPM8 (Homo sapiens (Human), UniProt Q7Z2W7)
Sequence (Q7Z2W7 whole entry): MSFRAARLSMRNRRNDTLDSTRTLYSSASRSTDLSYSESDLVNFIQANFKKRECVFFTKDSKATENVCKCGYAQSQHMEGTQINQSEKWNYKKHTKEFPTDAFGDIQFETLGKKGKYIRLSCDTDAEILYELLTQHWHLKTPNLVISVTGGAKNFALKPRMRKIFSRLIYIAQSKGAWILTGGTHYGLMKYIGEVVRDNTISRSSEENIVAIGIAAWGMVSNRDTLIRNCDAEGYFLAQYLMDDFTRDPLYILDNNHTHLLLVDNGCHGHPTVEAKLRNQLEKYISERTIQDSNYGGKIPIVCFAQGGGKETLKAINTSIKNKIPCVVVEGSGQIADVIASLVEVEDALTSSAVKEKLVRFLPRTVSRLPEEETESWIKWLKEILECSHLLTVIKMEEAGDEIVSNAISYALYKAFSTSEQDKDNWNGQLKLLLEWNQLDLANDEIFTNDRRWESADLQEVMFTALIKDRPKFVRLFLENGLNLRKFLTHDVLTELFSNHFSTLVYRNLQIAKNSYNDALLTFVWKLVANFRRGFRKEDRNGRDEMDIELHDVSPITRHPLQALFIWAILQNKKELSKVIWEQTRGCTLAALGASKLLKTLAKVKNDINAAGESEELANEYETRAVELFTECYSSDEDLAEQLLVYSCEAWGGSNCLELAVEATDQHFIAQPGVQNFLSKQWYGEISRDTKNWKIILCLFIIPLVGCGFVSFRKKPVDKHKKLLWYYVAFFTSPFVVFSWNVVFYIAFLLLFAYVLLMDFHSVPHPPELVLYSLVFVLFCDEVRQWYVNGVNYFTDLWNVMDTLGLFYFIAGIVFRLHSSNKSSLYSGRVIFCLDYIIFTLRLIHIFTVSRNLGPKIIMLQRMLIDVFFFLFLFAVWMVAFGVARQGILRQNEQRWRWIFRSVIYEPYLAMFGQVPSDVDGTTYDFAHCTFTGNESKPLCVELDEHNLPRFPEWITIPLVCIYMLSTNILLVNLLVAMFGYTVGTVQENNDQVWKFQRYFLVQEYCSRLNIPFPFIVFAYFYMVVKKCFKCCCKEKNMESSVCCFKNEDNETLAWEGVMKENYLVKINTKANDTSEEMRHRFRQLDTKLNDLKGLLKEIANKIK
Test: TRPM8 inhibition assay (menthol-induced calcium influx, FDSS)
Details: HEK293 cells stably expressing human TRPM8; 100 μM menthol; Fura-2AM Ca2+ signal; read-out: TRPM8 Blocking Test (IC50)
measured property: IC50 (nM)

{"compound": "O=C(O)c1ccc(S(=O)(=O)N(Cc2ccc(OC(F)(F)F)cc2)c2cc3c(Cl)cccc3c(Br)n2)cc1 [Example 148]", "IC50 [nM]": 287}

P = O=C(O)c1ccc(S(=O)(=O)N(Cc2ccc(OC(F)(F)F)cc2)c2ncc(Cl)c3sccc23)cc1 [Example 212]
Q = Cc1c(N(Cc2ccc(OC(F)(F)F)cc2)S(=O)(=O)c2ccc(C(=O)O)cc2)nc(-c2cccnc2)c2ccccc12 [Example 213]
R = Cc1c(N(Cc2cccc(C(F)(F)C3CC3)c2)S(=O)(=O)c2ccc(C(=O)O)cc2)ncc2ccccc12 [Example 205]
S = COC(C)(c1ccc(CN(c2ncc3ccccc3c2C)S(=O)(=O)c2ccc(C(=O)O)cc2)cc1)C(F)(F)F (centres unmarked) [Example 96]
T = Cc1c(N(Cc2ccc(OC(F)(F)F)cc2)S(=O)(=O)c2ccc(C(=O)O)cc2)nc(C2CC2)c2c(C)cccc12 [Example 215]
Query: Rank the items in ascending order with respect to IC50. Write out the labels following the order that was asked for.
Result: S, T, R, P, Q

* * *

Biological target: human TRPM8 (Homo sapiens (Human))
Assay: TRPM8 inhibition assay (menthol-induced calcium influx, FDSS)
Conditions: HEK293 cells stably expressing human TRPM8; 100 μM menthol; Fura-2AM Ca2+ signal; read-out: TRPM8 Blocking Test (IC50)
measured property: IC50 (nM)

Please review the following examples before continuing.
{"compound": "Cc1c(N(Cc2ccc(Oc3ccccc3)cc2)S(=O)(=O)c2ccc(C(=O)O)cc2)ncc2ccccc12", "measured property": "IC50", "quantitative result": 16}
{"compound": "Cc1cc2ccccc2nc1N(Cc1ccc(CC2CC2)cc1)S(=O)(=O)c1ccc(C(=O)O)cc1", "measured property": "IC50", "quantitative result": 7.7}

A = Cc1cc2ccccc2nc1N(Cc1ccc(C(F)(F)C2CC2)c(Cl)c1)S(=O)(=O)c1ccc(C(=O)O)cc1
B = Cc1c(N(Cc2ccc3ccccc3c2)S(=O)(=O)c2ccc(C(=O)O)cc2)ncc2ccccc12
C = O=C(O)c1ccc(S(=O)(=O)N(c2ncc3ccccc3c2C2CC2)C2CCc3cc(OC(F)(F)F)ccc32)cc1 (stereo not drawn) [Example 186]
D = Cc1c(N(Cc2ccc(-c3cccc(F)c3)cc2)S(=O)(=O)c2ccc(C(=O)O)cc2)ncc2ccccc12
Query: Rank the items in ascending order with respect to IC50. Write out the labels following the order that was asked for.
Result: A, C, B, D
(A: 1.4 nM, C: 4.3 nM, B: 8.6 nM, D: 15 nM)

* * *

Biological target: human TRPM8 (Homo sapiens (Human))
Experiment: TRPM8 inhibition assay (menthol-induced calcium influx, FDSS)
Details: HEK293 cells stably expressing human TRPM8; 100 μM menthol; Fura-2AM Ca2+ signal; read-out: TRPM8 Blocking Test (IC50)
measured property: IC50 (nM)

Please review the following examples before continuing.
{"molecule": "Cc1c(N(Cc2ccc(OC3CCCC3)cc2)S(=O)(=O)c2ccc(C(=O)O)cc2)ncc2ccccc12 [Example 46]", "measured property": "IC50", "unit tag": "nM", "quantitative result": 17}
{"molecule": "Cc1c(N(Cc2ccccc2)S(=O)(=O)c2ccc(C(=O)O)cc2)nc(C2CC2)c2ccccc12 [Example 139]", "measured property": "IC50", "unit tag": "nM", "quantitative result": 12}
{"molecule": "Cc1c(N(Cc2ccc(CC3CC3)cc2F)S(=O)(=O)c2ccc(C(=O)O)cc2)ncc2ccccc12 [Example 171]", "measured property": "IC50", "unit tag": "nM", "quantitative result": 7.1}

A = O=C(O)c1ccc(S(=O)(=O)N(Cc2ccc(OC(F)(F)F)cc2)c2cc3c(Cl)cccc3cn2)cc1 [Example 102]
B = Cc1c(N(Cc2ccc3c(c2)CCC3(O)C(F)(F)F)S(=O)(=O)c2ccc(C(=O)O)cc2)ncc2ccccc12 (stereo not shown) [Example 173]
C = CC(C)c1nc(N(Cc2ccc(OC(F)(F)F)cc2)S(=O)(=O)c2ccc(C(=O)O)cc2)c(C2CC2)c2ccccc12 [Example 231]
D = Cc1c(N(Cc2cc3ccc(Cl)cc3s2)S(=O)(=O)c2ccc(C(=O)O)cc2)ncc2ccccc12 [Example 198]
Query: Sort the 4 molecules by IC50; largest first, smallest last. Write out the labels following the order that was asked for.
Result: A, B, D, C

* * *

Target: human TRPM8 (Homo sapiens (Human), UniProt Q7Z2W7)
Test: TRPM8 inhibition assay (menthol-induced calcium influx, FDSS)
Conditions: HEK293 cells stably expressing human TRPM8; 100 μM menthol; Fura-2AM Ca2+ signal; read-out: TRPM8 Blocking Test (IC50)
pIC50: −log10 of the molar value.
measured property: pIC50

1 = Cc1c(N(Cc2ccc3c(c2)CC(C)(C)O3)S(=O)(=O)c2ccc(C(=O)O)cc2)ncc2ccccc12 [Example 80]
2 = Cc1c(N(Cc2cc(F)c3c(c2)CCC3)S(=O)(=O)c2ccc(C(=O)O)cc2)ncc2ccccc12 [Example 175]
3 = Cc1ccc2cnc(N(Cc3ccc(OC(F)(F)F)cc3)S(=O)(=O)c3ccc(C(=O)O)cc3)c(C)c2c1 [Example 135]
Query: Rank the listed molecules according to pIC50, from the largest value downward. Write out the labels following the order that was asked for.
Result: 2, 1, 3
(2: 8.36, 1: 7.74, 3: 6.87)

P = Cc1c(N(Cc2ccc3c(c2)COC3(C)C)S(=O)(=O)c2ccc(C(=O)O)cc2)ncc2ccccc12 [Example 83]
Q = CNC(=O)c1ccc(S(=O)(=O)N(Cc2ccc(OC(F)(F)F)cc2)c2ncc3ccccc3c2C)cc1 [Example 238]
Query: Smaller pIC50 value? Options are P and Q Selection: enter the item's label.
Result: Q

P = COC(C)(c1ccc(CN(c2ncc3ccccc3c2C)S(=O)(=O)c2ccc(C(=O)O)cc2)cc1F)C(F)(F)F (stereo not shown) [Example 219]
Q = Cc1cccc2c(C)c(N(Cc3ccc(OC(F)(F)F)cc3)S(=O)(=O)c3ccc(C(=O)O)cc3)ncc12 [Example 136]
Query: Smaller pIC50 value? Options are P and Q Selection: enter the item's label.
Result: Q

* * *

Target: human TRPM8 (Homo sapiens (Human), UniProt Q7Z2W7)
Assay: TRPM8 inhibition assay (menthol-induced calcium influx, FDSS)
Settings: HEK293 cells stably expressing human TRPM8; 100 μM menthol; Fura-2AM Ca2+ signal; read-out: TRPM8 Blocking Test (IC50)
measured property: IC50 (nM)

{"compound": "Cc1cc2ccccc2nc1N(Cc1ccc2c(c1)CCCC2)S(=O)(=O)c1ccc(C(=O)O)cc1", "measured property": "IC50", "unit tag": "nM", "quantitative result": 6.9}
{"compound": "NC(=O)c1ccc(S(=O)(=O)N(Cc2ccc(OC(F)(F)F)cc2)c2ncc3ccccc3c2C(F)(F)F)cc1", "measured property": "IC50", "unit tag": "nM", "quantitative result": 10}
{"compound": "Cc1cc2cccc(Cl)c2nc1N(Cc1ccc(OC(F)(F)F)cc1)S(=O)(=O)c1ccc(C(=O)O)cc1", "measured property": "IC50", "unit tag": "nM", "quantitative result": 4.3}
{"compound": "O=C(O)c1ccc(S(=O)(=O)N(Cc2ccc(OC(F)(F)F)cc2)c2ncc3ccccc3c2C(F)(F)F)cc1", "measured property": "IC50", "unit tag": "nM", "quantitative result": 2}
{"compound": "Cc1c(N(Cc2ccc(C(O)(C3CC3)C(F)(F)F)cc2)S(=O)(=O)c2ccc(C(=O)O)cc2)ncc2ccccc12 (centres unmarked)", "measured property": "IC50", "unit tag": "nM", "quantitative result": 30}

A = Cc1c(N(Cc2ccc(CC3(C(F)(F)F)CC3)cc2)S(=O)(=O)c2ccc(C(=O)O)cc2)ncc2ccccc12
B = Cc1ccc2c(C)c(N(Cc3ccc(OC(F)(F)F)cc3)S(=O)(=O)c3ccc(C(=O)O)cc3)ncc2c1
Query: // max by IC50 over [ A , B ] Selection: enter the item's label.
Result: B

I = O=C(O)c1ccc(S(=O)(=O)N(Cc2ccc(OC(F)(F)F)cc2)c2ncc3ccccc3c2C2CC2)cc1
II = Cc1c(N(Cc2ccc(OC(F)(F)F)cc2)S(=O)(=O)c2ccc(C(=O)O)cc2)nc(OC(C)C)c2ccccc12
III = COc1nc(N(Cc2ccc(OC(F)(F)F)cc2)S(=O)(=O)c2ccc(C(=O)O)cc2)c(C)c2cccc(C)c12
Query: Rank the items in ascending order with respect to IC50. Write out the labels following the order that was asked for.
Result: I, II, III
(I: 0.9 nM, II: 21 nM, III: 44 nM)

I = Cc1c(N(Cc2ccc(OC(F)(F)F)cc2)S(=O)(=O)c2ccc(C(=O)O)cc2)nc(N2CCCC2)c2ccccc12
II = Cc1cc2ccc(F)cc2nc1N(Cc1ccc(OC(F)(F)F)cc1)S(=O)(=O)c1ccc(C(=O)O)cc1
Query: // max by IC50 over [ I , II ] Selection: enter the item's label.
Result: II
(II: 70 nM, I: 29 nM)

A = CCc1cc2ccccc2nc1N(Cc1ccc(OC(F)(F)F)cc1)S(=O)(=O)c1ccc(C(=O)O)cc1
B = CCCc1nc(N(Cc2ccc(OC(F)(F)F)cc2)S(=O)(=O)c2ccc(C(=O)O)cc2)c(C)c2ccccc12
Query: Smaller IC50 value? Options are A and B Selection: enter the item's label.
Result: B
